test target: T1, human CD8 on human T cells (human, UniProt P01732 22-235; P10966 22-210)
T1 construct: whole, on cells; Target as carried by human CD3+/CD8+ T cells, PBMCs or MART-1-specific T cells; the mice were immunized with human CD8a; also called hCD8; CD8 expressed on the cell surface
T1 sequence (P01732 22-235, chain 1 of 2): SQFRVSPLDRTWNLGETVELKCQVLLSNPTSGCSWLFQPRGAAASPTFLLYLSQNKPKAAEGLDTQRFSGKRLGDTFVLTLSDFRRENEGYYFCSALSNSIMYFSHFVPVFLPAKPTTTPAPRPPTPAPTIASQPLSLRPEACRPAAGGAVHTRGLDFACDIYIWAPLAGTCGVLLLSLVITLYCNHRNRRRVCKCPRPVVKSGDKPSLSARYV
T1 sequence (P10966 22-210, chain 2 of 2): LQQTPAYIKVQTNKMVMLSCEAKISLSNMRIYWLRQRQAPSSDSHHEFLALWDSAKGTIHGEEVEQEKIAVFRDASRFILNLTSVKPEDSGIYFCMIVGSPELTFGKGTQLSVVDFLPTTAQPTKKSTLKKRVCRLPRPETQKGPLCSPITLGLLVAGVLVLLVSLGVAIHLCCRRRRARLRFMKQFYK
assay comment: flow cytometry, 0.2 nM antibody on human CD8+ T cells, anti-human IgG detection (MFI AF647)
measure name: binding result

- binder: "humanized 02A01-VH1-VK2 (antibody, V domains shown) VH: EVQLVQSGPEVVKPGATLKISCKASGYTFTDFTMHWVKQAPGKSLEWIGLVNPNNGGNIYNQNFKGRATLTVDTSTSTAYMELSSLRSEDTSVYYCGRVPLYTSHGMDYWGQGTLVTVSS VL: EIVLTQSPATLSVSPGERATISCRASESVDSYDINSMHWYQQKPGQAPRLLIYRASHLQSGIPARFSGSGSRTDFTLTISSVEPEDFATYYCQQSNEDPLTFGQGTKLEIK"
  value measured: "binds"
- binder: "humanized 02A01-VH1-VK1 (antibody, V domains shown) VH: EVQLVQSGPEVVKPGATLKISCKASGYTFTDFTMHWVKQAPGKSLEWIGLVNPNNGGNIYNQNFKGRATLTVDTSTSTAYMELSSLRSEDTSVYYCGRVPLYTSHGMDYWGQGTLVTVSS VL: EIVLTQSPATLSVSPGERATISCRASESVDSYDINSMHWYQQKPGQPPRLLIYRASHLQSGIPARFSGSGSRTDFTLTISSVEPEDFATYYCQQSNEDPLTFGQGTKLEIK"
  value measured: "binds"
- binder: "humanized 02A01-VH2-VK2 (antibody, V domains shown) VH: EVQLVQSGAEVKKPGATLKISCKASGYTFTDFTMHWVQQAPGKGLEWIGLVNPNNGGNIYNQNFKGRATLTVDTSTSTAYMELSSLRSEDTSVYYCGRVPLYTSHGMDYWGQGTLVTVSS VL: EIVLTQSPATLSVSPGERATISCRASESVDSYDINSMHWYQQKPGQAPRLLIYRASHLQSGIPARFSGSGSRTDFTLTISSVEPEDFATYYCQQSNEDPLTFGQGTKLEIK"
  value measured: "binds"
